B1: Hairpin Ribozyme (parent)
chain: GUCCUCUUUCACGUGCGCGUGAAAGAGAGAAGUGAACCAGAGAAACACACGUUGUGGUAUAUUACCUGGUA

Variants of: B1
Test: self-cleavage, relative activity (ratio to wild type); higher = more cleavage; co-transcriptional
Returns one of T or F; T when self-cleavage is >= 0.2.

Ask: Is self-cleavage for U5A G25C at or above 0.2?
Result: F

Ask: Is self-cleavage for A39U G57A at or above 0.2?
Result: F

Ask: Is self-cleavage for A26U C38A at or above 0.2?
Result: F

Ask: Is self-cleavage for C3U G13U at or above 0.2?
Result: T

Ask: Is self-cleavage for G13U A30G at or above 0.2?
Result: F

Ask: Is self-cleavage for G21U G27C at or above 0.2?
Result: F

Ask: Is self-cleavage for C18G U20C at or above 0.2?
Result: T

Ask: Is self-cleavage for C16A U53A at or above 0.2?
Result: T

Ask: Is self-cleavage for G15C U70A at or above 0.2?
Result: T

Ask: Is self-cleavage for A11C C65U at or above 0.2?
Result: T

Ask: Is self-cleavage for U14G G54U at or above 0.2?
Result: T

Ask: Is self-cleavage for G25U A71C at or above 0.2?
Result: T

Ask: Is self-cleavage for G40U C46G at or above 0.2?
Result: F

Ask: Is self-cleavage for U9C A49G at or above 0.2?
Result: T

Ask: Is self-cleavage for G29A A31U at or above 0.2?
Result: F

Ask: Is self-cleavage for C3A G17C at or above 0.2?
Result: T

Ask: Is self-cleavage for C38G U58A at or above 0.2?
Result: F

Ask: Is self-cleavage for A31C U63G at or above 0.2?
Result: F

Ask: Is self-cleavage for C48U A49G at or above 0.2?
Result: F

Ask: Is self-cleavage for U7G U53G at or above 0.2?
Result: T

Ask: Is self-cleavage for G19A U55C at or above 0.2?
Result: F

Ask: Is self-cleavage for A36G U58A at or above 0.2?
Result: T

Ask: Is self-cleavage for U2A G29C at or above 0.2?
Result: F

Ask: Is self-cleavage for U52A U58C at or above 0.2?
Result: T

Ask: Is self-cleavage for U14G G32C at or above 0.2?
Result: F

Ask: Is self-cleavage for A43G U53A at or above 0.2?
Result: F

Ask: Is self-cleavage for U5C U20G at or above 0.2?
Result: T

Ask: Is self-cleavage for C12U A24C at or above 0.2?
Result: T

Ask: Is self-cleavage for G15U A41C at or above 0.2?
Result: T

Ask: Is self-cleavage for U67A G68A at or above 0.2?
Result: F

Ask: Is self-cleavage for A30U G32U at or above 0.2?
Result: F

Ask: Is self-cleavage for U20A A64G at or above 0.2?
Result: T

Ask: Is self-cleavage for G56C U60A at or above 0.2?
Result: F

Ask: Is self-cleavage for U9A A61G at or above 0.2?
Result: F

Ask: Is self-cleavage for A26U A64G at or above 0.2?
Result: T

Ask: Is self-cleavage for G1U C12G at or above 0.2?
Result: F
